Please go through the items and note down their RBC.
# Organism: Rattus norvegicus
# TEST_PROTOCOL: Open TG-GATES - Regimen: Single
# Type: toxicity, organism-based, Sprague-Dawley
# Set-up: regimen Single, gender Male, age 6 weeks
# EXPERIMENTAL_CONTEXT: in vivo, po, 0 mg/kg, 3 h, tissue Blood, route gavage, dose level Control
Give bare numbers, in x10_4/ul.

>>> measured_number("O=[N+]([O-])c1ccc(O)c([N+](=O)[O-])c1 [2,4-DINITROPHENOL]")
613.4
>>> measured_number("OCCN1CCN(CCCN2c3ccccc3Sc3ccc(C(F)(F)F)cc32)CC1 [FLUPHENAZINE]")
617.6
>>> measured_number("CCOC(=O)C(C)(C)Oc1ccc(Cl)cc1 [CLOFIBRATE]")
623.6
>>> measured_number("Cc1ccc2cc3c(ccc4ccccc43)c3c2c1CC3 [3-METHYLCHOLANTHRENE]")
616.6
>>> measured_number("Cc1cccc(C)c1OCC(C)N (centres undefined) [MEXILETINE]")
608.6

Take each entry in turn and give its RBC.
1. C[C@H]1C(=O)O[C@@H]2CCN3CC=C(COC(=O)[C@](C)(O)[C@]1(C)O)[C@H]23 [MONOCROTALINE]
2. Cn1cc[nH]c1=S [METHIMAZOLE]
3. C[C@H]1O[C@H](O[C@H]2[C@H](O)[C@@H](O)[C@@H](O[C@H]3[C@H](O)[C@@H](O)C(O)O[C@@H]3CO)O[C@@H]2CO)[C@H](O)[C@@H](O)[C@@H]1N[C@H]1C=C(CO)[C@@H](O)[C@H](O)[C@H]1O (some centres undefined) [ACARBOSE]
4. C=C(C)[C@H]1Cc2c(ccc3c2O[C@@H]2COc4cc(OC)c(OC)cc4[C@@H]2C3=O)O1 [ROTENONE]

Solution:
1: 591.6; 2: 612; 3: 647.8; 4: 601.6
